From: paper PMC7012012

- Test system: Vero (African green monkey kidney epithelium) cells
- TEST: BrdU cell proliferation ELISA, Vero
- Type: cell-based
- MEASUREMENT SETUP: Chlorocebus sabaeus, BrdU ELISA
PROPERTY NAME: pIC50
To interpret pIC50, take it as minus log10 of a concentration measured in moles per litre.

Prompt: Please report the recorded pIC50 for O=C(/C=C/c1ccc(O)c(O)c1)O[C@H](Cc1ccc(O)c(O)c1)C(=O)O .
Response: 3.55

###

- Tested on: HeLa (human cervix carcinoma) cell lines
- TEST: BrdU cell proliferation ELISA, HeLa
- Assay type: cell-based
- MEASUREMENT SETUP: Homo sapiens, HeLa, BrdU ELISA
Collected pIC50 values appear next to each entry.
To interpret pIC50, take it as minus log10 of a concentration measured in moles per litre.

>  <MOLECULE>
O=C(/C=C/c1ccc(O)c(O)c1)O[C@H](Cc1ccc(O)c(O)c1)C(=O)O [Compound 5, rosmarinic acid]

>  <pIC50>
3.63

$$$$

# ---- query molecule ----
Prompt: Please report the recorded pIC50 for O=C(OC(Cc1ccc(O)c(O)c1)C(=O)O)c1cc(-c2ccc(O)c(O)c2)c2cc(O)c(O)cc2c1 (centres unmarked) [Compound 6, globoidnan A] .
Response: 3.85
